B1: LINE1-mini (parent)
chain: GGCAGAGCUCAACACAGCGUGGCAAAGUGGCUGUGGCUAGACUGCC

# Variants of: B1
# Experimental Protocol: self-cleavage, relative activity (ratio to wild type); higher = more cleavage; in vitro, sequencing; the parent is a self-cleaving ribozyme
Test Readout: self-cleavage
Answers are plain numbers.

Mutation Label	self-cleavage
C13A A26U	0.11

Provide each entry's self-cleavage from the list below.
1. A16G C37A
2. A6C C37A
3. U9C A25C
4. U20C C23A
5. U28G G44U
6. A12U A14C
7. G7U U43G

[0.08, 0.34, 0.03, 0.49, 0.23, 0.05, 0.32]

Go through the items and report each one's self-cleavage.
1. A25C U38A
2. C3G C31U
3. C23A U38C
4. C10G A25U
5. U28G G30A

1: 0.22; 2: 0.07; 3: 0.52; 4: 0.1; 5: 0.9

Parameter requested: self-cleavage. Apply to each item below.
1. G7A G33A
2. A24C C37U
3. G5A A12C
4. G33U U43C
5. C3A A11C
6. G33C C45U

[0.29, 0.06, 0.04, 0.08, 0.04, 0.05]

Hi team, please reply with self-cleavage for each item in this list.
1. A14U G30U
2. C13G A16G

0.19
0.01

I'm hoping you can list self-cleavage for every variant here, please.
1. A16U A26U
2. C42G G44A
3. A16C U34A
4. A12U G35A

[0.13, 0.12, 0.04, 0.19]

Count: 6. Required value per item: self-cleavage.
1. C13G C37U
2. A4C A14C
3. U34A G35C
4. C3G A11C
5. G30C C42A
6. U34A C42G

[0.37, 0.1, 0.13, 0.04, 0.12, 0.04]

Please look at the items below and tell me self-cleavage for each one, in order.
1. A25C A39U
2. G19A A25G

0.52
0.58
